Entries and their growth inhibition values follow.
Assay: NCI Yeast Anticancer Drug Screen. Data for the rad50 strain (AID 155);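 further: 0% = growth of vehicle-only cultures of the same strain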
Settings: S. cerevisiae rad50 strain growth inhibition; at 5.0 µM (retest, dose inferred, filed as 0.5); stronger effect = higher value
This is part of a sample that, as a whole, favours compounds with a hit. Of some 79,000 tested, about 15% had one in any assay. Activity calls are given as the source filed them. No stated cut-off is given here; in the data, active means growth inhibition above about 70%; inactive means the rest.

Below, each entry is followed by its recorded growth inhibition result.
COMPOUND	READOUT VALUE
COc1ccc(N=C2C(=O)Nc3ccc(Br)cc32)cc1	50% (inactive)
CC1=C(SCCO)C(=O)c2ccccc2C1=O	1% (inactive)
COc1ccc(O)c(/C=N\Nc2ccccc2)c1	-124% (inactive)
O=C([O][Sn]([O]C(=O)c1ccccc1)([c]1ccccc1)[c]1ccccc1)c1ccccc1	4% (inactive)
OC1(c2ccccc2)CSC2=Nc3ccccc3C3CCN1N23 (stereo not given)	24% (inactive)
CC(=O)OC1CCC2(C)C(=CCC3C4CCC5(OC6CC(C)CN(C(C)=O)C6C5C)C(C)=C4C(=O)C32)C1 (stereo not given)	0% (inactive)
Cc1ccc(S(=O)(=O)NCCSS(=O)(=O)c2ccc(C)cc2)cc1	36% (inactive)
Cc1cc(O)cc(O)c1N=Nc1ccc([N+](=O)[O-])cc1	47% (inactive)
O=Cc1cccc2ccc3ccccc3c12	-102% (inactive)
CN=C(N)N/N=C/c1ccc2c(c1)Cc1ccccc1-2	10% (inactive)

Given the entry COc1cc(C2c3cc4c(cc3OC(NNc3ccccc3)C2C)OCO4)cc(OC)c1OC (stereo not given) , report its measured growth inhibition. 14% (inactive)

How about O=C1Nc2ccc(Cl)c(I)c2C1=O ? -13% (inactive)

Now consider COc1ccc2nc3c([N+](=O)[O-])ccc(NCCN(C)C)c3c(NCCN(C)C)c2c1 and answer again. 16% (inactive)

O=C(Cc1csc2[n+]1C(=O)/C(=C/c1ccc(Cl)cc1)S2)Nc1ccccc1 ? 24% (inactive)

====

Assay: NCI Yeast Anticancer Drug Screen. Data for the mec2-1 strain (AID 157)
Conditions: S. cerevisiae mec2-1 strain, at 3.7 µM, stronger effect = higher value
Compounds without any hit were thinned out: in the full panel of roughly 79,000, 15% have a hit.
Quick reference: growth inhibition of the listed items.
Please reply with the bare figure in % and do not write the unit itself.

COMPOUND	READOUT VALUE
CC(C)C1=CC2=C[C@H](O)[C@H]3C(C)(C)CCC[C@]3(C)C2=C(O)C1=O	-1
Cc1cc(I)ccc1N	4
[N-]=[N+]=NC1=C(c2ccccn2)C(=O)c2cccc3cccc1c23	7
NNc1c(F)c(F)cc(F)c1F	-35
COc1ccc(NC(=S)N/N=C(\c2ccccc2)c2ccccn2)cc1	-7

Tell me the measured growth inhibition of S=C(N/N=C/c1ccccn1)Nc1ccc(Cl)cc1 , please. -6

// same read-out, input: O=C1C=CC(=C(c2ccccc2)c2ccccc2)c2ccccc21 -1

Item: COc1ccc2c(c1)C(=O)c1ccccc1C2 5

Lookup CCOC(=O)c1cnc2c(C(F)(F)F)cccc2c1N=[N+]=[N-] -4

// repeat for O=C1OC(CCl)CN1/N=C/c1ccc([N+](=O)[O-])o1 (stereo unspecified) and report -3

Another compound to look at: Cn1c2ccccc2c(=O)c2cc(NC(=O)CCCCC(=O)Nc3ccc4c(c3)c(=O)c3ccccc3n4C)ccc21 -2

====

Assay: NCI Yeast Anticancer Drug Screen. Data for the bub3 strain (AID 167)
Details: S. cerevisiae bub3 mutant strain, at 50.0 µM, stronger effect = higher value
Description: Growth inhibition of yeast strains with defined genetic alterations is measured as a screen for potential anti-cancer activity. Selected strains with alterations in DNA damage repair or cell cycle control were exposed to compounds and growth inhibition was measured relative to vehicle treated controls. The strain used in this assay is bub3
Compounds without any hit were thinned out: in the full panel of roughly 79,000, 15% have a hit.
ASSAY METRIC: growth inhibition (%)
Write it as a number; the unit % goes unstated.

What does the record list as growth inhibition for CCNc1nnc(CSc2nc(-c3ccccc3)c(-c3ccccc3)[nH]2)s1 ? 85.2

Would you kindly repeat that for C[Si](C)(C)CNC(=O)OCc1ccccc1 ? 93.5

And the next one, CCC(C)COC(=O)c1ccc(N=Cc2ccc(C=Nc3ccc(C(=O)OCC(C)CC)cc3)cc2)cc1 (stereo not drawn) ? 62.1

====

Assay: NCI Yeast Anticancer Drug Screen. Data for the mec2-1 strain (AID 157)
Conditions: S. cerevisiae mec2-1 strain, at 50.0 µM (retest, dose inferred, filed as 5.0), stronger effect = higher value
Compounds without any hit were thinned out: in the full panel of roughly 79,000, 15% have a hit.
Threshold check on growth inhibition: at or above 30% gives yes (1), strictly below gives no (0).

COMPOUND	CATEGORY
Cn1c(=O)c2ccccc2c2ccccc21	no (0)
CCCCN1C(=O)N(c2ccc(OCC)cc2)C2N(CCCC)C1C(C)(C)C2(C)C (stereo unspecified)	yes (1)
COC(=O)C1=C(C)NC(C)=C(C(=O)OC)C1c1cccc(/[N+]([O-])=C/c2ccccc2)c1	no (0)
COc1ccc(OC)c2cc3ccccc3cc12	yes (1)
Fc1ccc(NC(=S)SCc2ccc3c(c2)OCO3)cc1F	yes (1)
CC1C(NNc2ccccc2)Oc2cc3c(cc2C1c1ccccc1O)OCO3 (stereo unspecified)	yes (1)

Decide: is the reported value of growth inhibition for Cc1ccc(S(=O)(=O)NNC(=S)Nc2cccc3ccccc23)cc1 equal to or greater than 30%? yes (1)

====

Experiment: NCI Yeast Anticancer Drug Screen. Data for the bub3 strain (AID 167)
Details: S. cerevisiae bub3 mutant strain, at 11.0 µM
This is part of a sample that, as a whole, favours compounds with a hit. Of some 79,000 tested, about 15% had one in any assay. The source made the active and inactive calls. Cut-off read from the data, not from the text of the source: active = growth inhibition above about 70%; inactive = the rest.
// classify into y = active, n = inactive

Answered examples (5):
COMPOUND	CATEGORY
CC1=C(C)Cc2c(O)ccc(O)c2C1	n
CCOC(=O)c1cc([N+](=O)[O-])cc([N+](=O)[O-])c1Sc1ncnc2nc[nH]c12	n
O=C(c1ccc(Cl)cc1Cl)C(Cl)Cl	n
Cc1c(Cl)ccc2c1S(=O)(=O)c1cccc(Cl)c1-2	n
N#Cc1ccc(C2NN=CC23C(=O)c2ccccc2OC3c2ccccc2)cc1 (stereo not given)	n

How was CC/C(=C(\c1ccccc1)c1ccc(OCCN(C)C)cc1)c1ccccc1 classified in this test? n

Quick one: COc1ccccc1N=NC(C(=O)c1ccccc1)C(=O)c1ccccc1 n

Also, O=C1C2CC[C@@H]3C(=O)C(Cl)(Cl)[C@@H]3CCC2C1(Cl)Cl (stereo not given in full) please. n

Continue with Cn1c(N)nc(-c2ccc(Cl)cc2)c1SSc1c(-c2ccc(Cl)cc2)nc(N)n1C n

Also, O=Nc1cccnc1N=O please. y

Same for C=CC(C)(O)CCC1C(=C)C(O)CC2C(C)(C)CCCC12C (stereo not given) n

Request: O=C([O][Sn]([O]C(=O)c1ccccc1)([c]1ccccc1)[c]1ccccc1)c1ccccc1 n

And what about the compound COc1ccc(C2c3cc4c(cc3OC(C)(O)C2C)OCO4)c(OC)c1 (stereo not given) ? n

Can you check O=C(OCCN1CCCCCC1)C(c1ccsc1)C1CCCCC1 (stereo not given) next? n

What do we get for COC1=CC(=O)C(C2(OC(C)C)OC(=O)C(Cl)=C2Cl)=CC1=O (stereo not given) ? y

Moving on to the next compound: O=C(c1cc(Br)ccc1O)c1cc(Br)ccc1O y

Consider next the compound Cc1ccc(S(=O)(=O)NCCSS(=O)(=O)c2ccc(C)cc2)cc1 in the same way. n

Query Cc1[nH]c2ccccc2c1C(c1ccc(N)cc1)c1c(C)[nH]c2ccccc12 next n

Try this compound next: CC(/C=C/c1ccc(Cl)cc1)=N\NC(=S)NCC(C)C n

For BrCC[P+](c1ccccc1)(c1ccccc1)c1ccccc1 then? n

And Nc1ccn(C2OC(CO)C3[O][Sn]([c]4ccccc4)([c]4ccccc4)[O]C32)c(=O)n1 (stereo not given) ? n

Another compound to check: N#CN1C2CCC1CC(=O)C2 n

Note, next up: CCCCCCCCCCCCCC[N+](C)(CC(=O)[O-])Cc1ccccc1 (stereo not given) y

Then COc1cc(C2c3cc4c(cc3OC(NNc3ccccc3)C2C)OCO4)cc(OC)c1OC (stereo not given) ? y

And for c1ccc2c(c1)-c1nc3ccccc3cc1C2N1CCOCC1 (stereo not given) ? n

====

Experiment: NCI Yeast Anticancer Drug Screen. Data for the mlh1 rad18 strain (AID 175)
Settings: S. cerevisiae mlh1 rad18 strain growth inhibition; at 50.0 µM (retest, dose inferred, filed as 5.0); stronger effect = higher value
This is part of a sample that, as a whole, favours compounds with a hit. Of some 79,000 tested, about 15% had one in any assay. Active and inactive are the calls of the source. No stated cut-off is given here; in the data, active means growth inhibition above about 70%; inactive means the rest.
Parameter: growth inhibition. Scope: all listed entries.

// known answers, use as guide
COMPOUND	READOUT VALUE
NNc1c(F)c(F)cc(F)c1F	36% (inactive)
O=C([O][Sn]([O]C(=O)c1ccccc1)([c]1ccccc1)[c]1ccccc1)c1ccccc1	76% (active)
COc1cc(C2C3=C(COC3=O)Oc3cc4c(cc32)OCO4)ccc1O (stereo unspecified)	45% (inactive)
Cc1ccc(C2C(Cl)C(=O)N2n2cnc3ccccc3c2=O)cc1 (stereo unspecified)	6% (inactive)
Oc1ccc(NCn2c(=S)sc3ccccc32)cc1	100% (active)

What growth inhibition value was documented for this compound, O=Nc1cccnc1N=O ? 99% (active)

Can you check CC(C)C1=CCC2C(=C1)CCC1C(C)(C(=O)O)CCCC21C (stereo unspecified) (tested in a mixture with another compound) next? 98% (active)

Record: CCN(CC)CCNc1ccc([N+](=O)[O-])c2nc3ccc(OC)cc3c(N)c12 86% (active)

Now the compound CSC1=NNC(SC)=NN1 35% (inactive)

Query O=C1C2CC[C@@H]3C(=O)C(Cl)(Cl)[C@@H]3CCC2C1(Cl)Cl (stereo partly specified) next 88% (active)

Let us now turn to CCN(CC)CCN1C(=O)c2cccc3cc(OC)cc(c23)C1=O 36% (inactive)
